run.description: Tmax in monkey at 3 mg/kg, po
Format: ADME, organism-based, Macaca mulatta
condition.parameters: rhesus monkey, in vivo
attribute.measured: Tmax (h)
Your answer is read as h, so omit the unit and give the number.

(Q) Which Tmax value is on record for Cl.NC(=O)[C@@H]1CC[C@H](c2ccc(OCc3ccccc3F)cc2)N1 [RAXATRIGINE HYDROCHLORIDE] ?
(A) 2

* * *

tgt: Amine oxidase [flavin-containing] B (Homo sapiens, UniProt P27338)
Sequence (P27338 whole entry): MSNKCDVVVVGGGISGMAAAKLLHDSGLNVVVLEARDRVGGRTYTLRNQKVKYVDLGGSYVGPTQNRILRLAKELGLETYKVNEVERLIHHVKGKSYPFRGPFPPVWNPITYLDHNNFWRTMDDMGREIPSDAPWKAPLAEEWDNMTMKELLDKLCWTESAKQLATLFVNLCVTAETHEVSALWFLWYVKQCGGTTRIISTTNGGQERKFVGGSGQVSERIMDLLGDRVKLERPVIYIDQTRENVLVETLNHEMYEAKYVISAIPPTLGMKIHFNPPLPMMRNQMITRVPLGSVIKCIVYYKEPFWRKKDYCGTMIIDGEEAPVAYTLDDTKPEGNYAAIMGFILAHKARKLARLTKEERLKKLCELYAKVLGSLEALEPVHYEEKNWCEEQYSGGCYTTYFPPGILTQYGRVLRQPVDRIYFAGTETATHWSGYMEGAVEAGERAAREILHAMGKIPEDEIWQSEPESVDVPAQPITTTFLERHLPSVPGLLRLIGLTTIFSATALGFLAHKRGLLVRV
run.description: Inhibition of MAO-B (unknown origin)
attribute.measured: pIC50
Recall that pIC50 is obtained by taking minus log10 of the concentration measured in molar.

(Q) Which pIC50 value is on record for Cl.NC(=O)[C@@H]1CC[C@H](c2ccc(OCc3ccccc3F)cc2)N1 [RAXATRIGINE HYDROCHLORIDE] ?
(A) 8.40

* * *

tgt: Cytochrome P450 2C8 (Homo sapiens)
Sequence (P10632 whole entry): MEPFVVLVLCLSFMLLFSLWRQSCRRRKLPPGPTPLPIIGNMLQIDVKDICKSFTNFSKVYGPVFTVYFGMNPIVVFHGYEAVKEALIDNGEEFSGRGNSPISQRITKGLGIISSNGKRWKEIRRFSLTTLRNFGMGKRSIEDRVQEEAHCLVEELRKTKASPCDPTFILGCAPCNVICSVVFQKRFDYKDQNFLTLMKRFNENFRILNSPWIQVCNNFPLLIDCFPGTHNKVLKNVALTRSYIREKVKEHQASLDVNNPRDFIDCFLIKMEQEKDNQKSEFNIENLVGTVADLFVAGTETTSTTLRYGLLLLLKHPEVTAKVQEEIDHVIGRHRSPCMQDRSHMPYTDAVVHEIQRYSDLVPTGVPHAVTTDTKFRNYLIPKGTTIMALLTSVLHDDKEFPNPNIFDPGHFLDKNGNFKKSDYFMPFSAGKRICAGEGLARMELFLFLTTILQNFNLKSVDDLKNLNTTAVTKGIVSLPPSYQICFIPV
run.description: Inhibition of CYP2C8 (unknown origin)
Type: ADME
attribute.measured: IC50

(Q) // map Cl.NC(=O)[C@@H]1CC[C@H](c2ccc(OCc3ccccc3F)cc2)N1 [RAXATRIGINE HYDROCHLORIDE] to recorded IC50 (system: Cytochrome P450 2C8 (Homo sapiens))
(A) > 100 µM

* * *

tgt: Sodium channel protein type 3 subunit alpha (Homo sapiens)
Sequence (Q9NY46 whole entry, looked up): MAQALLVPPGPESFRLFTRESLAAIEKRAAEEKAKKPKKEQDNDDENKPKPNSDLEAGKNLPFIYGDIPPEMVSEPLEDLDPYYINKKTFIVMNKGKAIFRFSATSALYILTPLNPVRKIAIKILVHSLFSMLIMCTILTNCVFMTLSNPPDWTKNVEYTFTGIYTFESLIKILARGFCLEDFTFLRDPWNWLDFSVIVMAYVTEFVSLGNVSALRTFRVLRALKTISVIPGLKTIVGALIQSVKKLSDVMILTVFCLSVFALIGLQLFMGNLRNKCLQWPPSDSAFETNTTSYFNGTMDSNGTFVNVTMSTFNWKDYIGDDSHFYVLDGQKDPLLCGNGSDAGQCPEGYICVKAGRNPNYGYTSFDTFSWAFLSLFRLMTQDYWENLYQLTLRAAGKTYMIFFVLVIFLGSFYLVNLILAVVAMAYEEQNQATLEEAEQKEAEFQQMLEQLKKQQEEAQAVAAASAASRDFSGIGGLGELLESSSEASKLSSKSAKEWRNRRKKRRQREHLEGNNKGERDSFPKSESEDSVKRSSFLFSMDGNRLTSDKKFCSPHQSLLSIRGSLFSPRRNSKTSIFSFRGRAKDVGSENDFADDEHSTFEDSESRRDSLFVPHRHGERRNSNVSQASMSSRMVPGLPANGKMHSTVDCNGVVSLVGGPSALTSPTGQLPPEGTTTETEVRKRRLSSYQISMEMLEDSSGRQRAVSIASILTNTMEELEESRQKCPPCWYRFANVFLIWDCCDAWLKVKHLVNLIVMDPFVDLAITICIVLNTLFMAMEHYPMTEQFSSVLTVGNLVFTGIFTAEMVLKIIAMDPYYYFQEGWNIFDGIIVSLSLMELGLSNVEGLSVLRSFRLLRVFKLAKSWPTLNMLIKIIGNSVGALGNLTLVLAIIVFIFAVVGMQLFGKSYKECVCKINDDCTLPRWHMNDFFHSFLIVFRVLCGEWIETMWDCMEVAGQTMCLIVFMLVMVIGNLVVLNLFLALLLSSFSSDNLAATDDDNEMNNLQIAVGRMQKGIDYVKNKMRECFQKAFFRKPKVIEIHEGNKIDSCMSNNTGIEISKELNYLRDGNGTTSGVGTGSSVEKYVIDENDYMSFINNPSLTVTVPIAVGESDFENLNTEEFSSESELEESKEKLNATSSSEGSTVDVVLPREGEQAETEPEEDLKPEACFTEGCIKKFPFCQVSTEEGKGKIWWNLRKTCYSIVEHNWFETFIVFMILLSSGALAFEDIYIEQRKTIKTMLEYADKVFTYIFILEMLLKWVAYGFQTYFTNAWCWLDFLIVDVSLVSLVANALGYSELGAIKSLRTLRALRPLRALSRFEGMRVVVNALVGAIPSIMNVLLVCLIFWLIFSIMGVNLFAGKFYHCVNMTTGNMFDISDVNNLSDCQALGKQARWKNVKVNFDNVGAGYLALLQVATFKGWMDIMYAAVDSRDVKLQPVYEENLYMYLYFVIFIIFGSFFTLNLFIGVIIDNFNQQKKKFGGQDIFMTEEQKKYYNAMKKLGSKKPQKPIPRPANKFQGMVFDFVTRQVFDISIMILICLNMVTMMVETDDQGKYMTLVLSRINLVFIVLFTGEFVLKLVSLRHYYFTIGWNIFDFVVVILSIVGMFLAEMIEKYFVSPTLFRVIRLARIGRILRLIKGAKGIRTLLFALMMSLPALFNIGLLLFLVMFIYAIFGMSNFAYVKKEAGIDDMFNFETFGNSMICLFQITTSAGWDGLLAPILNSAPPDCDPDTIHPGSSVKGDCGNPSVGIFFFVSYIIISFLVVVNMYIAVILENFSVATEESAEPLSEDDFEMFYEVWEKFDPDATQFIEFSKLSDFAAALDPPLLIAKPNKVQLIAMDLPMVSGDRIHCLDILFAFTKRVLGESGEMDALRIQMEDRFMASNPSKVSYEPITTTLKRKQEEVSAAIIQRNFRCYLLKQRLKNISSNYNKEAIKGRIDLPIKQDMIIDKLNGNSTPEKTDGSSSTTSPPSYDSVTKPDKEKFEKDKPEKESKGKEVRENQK
run.description: Inhibition of Nav1.3 (unknown origin) expressed in HEK293 cells assessed as 15% inhibition of sodium current incubated for 3 to 3.5 mins by electrophysiology assay
Assay type: cell-based
Kindly state log(activity) for each of the entries shown.

(Q) Which log(activity) value is on record for NC(=O)[C@@H]1CCC[C@H](c2ccc(OCc3cccc(F)c3)cc2)N1 (stereo in doubt) ?
(A) -5.4

(Q) Next entry: N#Cc1ccc(COc2ccc([C@H]3CC[C@@H](C(N)=O)N3)cc2)cc1
(A) -5

(Q) Next entry: NC(=O)C1CCC(c2ccc(OCc3ccccc3F)cc2)N1 (stereo unspecified)
(A) -5.4

(Q) Next entry: NC(=O)[C@@H]1CC[C@H](c2cccc(Oc3ccccc3)c2)N1
(A) -4.7

(Q) Next entry: NC(=O)[C@@H]1CCCN1Cc1ccc(OCc2ccccc2F)cc1
(A) -5.8

(Q) Next entry: NC(=O)[C@@H]1CC[C@H](c2ccc(OCc3ccccc3)cc2)N1
(A) -5.6

(Q) Next entry: N#Cc1cc([C@H]2CC[C@@H](C(N)=O)N2)ccc1OCc1ccccc1F
(A) -4.8

(Q) Next entry: C[C@H](NC1CCCc2cc(OCc3ccccc3F)ccc21)C(N)=O (stereo partly specified)
(A) -5.6

(Q) Next entry: NC(=O)[C@@H]1CSC[C@H](c2ccc(OCc3cccc(F)c3)cc2)N1 (racemic)
(A) < -4.05

(Q) Next entry: NC(=O)[C@@H]1CC[C@H](c2ccc(OCc3cccc(F)c3)cc2)N1
(A) -5.5

(Q) Next entry: C[C@@H](Oc1ccc([C@H]2CC[C@@H](C(N)=O)N2)cc1)c1ccccc1
(A) -5.5

(Q) Next entry: NC(=O)[C@@H]1CC[C@H](c2ccc(OCc3ccccc3F)cc2F)N1
(A) -5.6

(Q) Next entry: C[C@@H](C(N)=O)N1CCCC1c1ccc(OCc2ccccc2F)cc1 (single isomer, unassigned; isomer 2)
(A) -5.9

(Q) Next entry: COc1cc([C@H]2CC[C@@H](C(N)=O)N2)ccc1OCc1ccccc1F
(A) -5.2

(Q) Next entry: NC(=O)[C@@H]1CC[C@H](c2ccc(Oc3ccccc3)cc2)N1
(A) -5.4

(Q) Next entry: C[C@@H](C(N)=O)N1CCCC1c1ccc(OCc2ccccc2F)cc1 (stereo partly specified)
(A) -5.5

(Q) Next entry: NC(=O)[C@@H]1CC[C@H](c2ccc(Oc3cccc(F)c3)cc2)N1
(A) -5.5

(Q) Next entry: Cl.NC(=O)[C@@H]1CC[C@H](c2ccc(OCc3ccccc3F)cc2)N1 [RAXATRIGINE HYDROCHLORIDE]
(A) -5.5

(Q) Next entry: CC(C(N)=O)N1CCOc2cc(OCc3ccccc3F)ccc2C1 (stereo unspecified)
(A) -4.6

(Q) Next entry: CNC(=O)[C@@H]1CC[C@H](c2ccc(OCc3ccccc3F)cc2)N1
(A) -5.3

(Q) Next entry: N#Cc1ccccc1COc1ccc([C@H]2CC[C@@H](C(N)=O)N2)cc1
(A) -5.3
